# Tested on: Maillard reaction (lysozyme / fructose, dimer formation)
# protocol.details: Maillard reaction-inhibiting effects (lysozyme dimer formation with fructose, SDS-PAGE densitometry)
# Assay type: biochemical
# particulars: test compound concentration 0.1 mM; 10 mg/mL lysozyme, 200 mM fructose, pH 7.4, 37° C., 4 days; dimer formation inhibition rate
Listing of recorded Maillard reaction-inhibiting activity (%) by entry.
readout.label: Maillard reaction-inhibiting activity (%)

compound=CCCCCn1c(CC[C@H](N)C(=O)NO)nc2cc(Cl)c(Cl)cc21 measured_target="Maillard reaction (lysozyme / fructose, dimer formation)" numeric_value=99
compound=CC(C)(C)c1ccc(COc2ccc(C[C@H](N)C(=O)NO)cc2)cc1 measured_target="Maillard reaction (lysozyme / fructose, dimer formation)" numeric_value=95
compound=N[C@@H](CCC(=O)NCc1ccccn1)C(=O)NO measured_target="Maillard reaction (lysozyme / fructose, dimer formation)" numeric_value=−3
compound=CC(C)(C)c1ccc(NC(=O)CC[C@H](N)C(=O)NO)cc1 measured_target="Maillard reaction (lysozyme / fructose, dimer formation)" numeric_value=86
compound=N[C@@H](CCc1nc2ccccc2n1C1CCCCC1)C(=O)NO measured_target="Maillard reaction (lysozyme / fructose, dimer formation)" numeric_value=82
compound=N[C@@H](CCC(=O)NC1CCCCC1)C(=O)NO measured_target="Maillard reaction (lysozyme / fructose, dimer formation)" numeric_value=−3
compound=CCCN(CCC)CCC[C@H](N)C(=O)NO measured_target="Maillard reaction (lysozyme / fructose, dimer formation)" numeric_value=7
compound=N[C@@H](Cc1ccc([N+](=O)[O-])cc1)C(=O)NO measured_target="Maillard reaction (lysozyme / fructose, dimer formation)" numeric_value=37
compound=COC(=O)Nc1ccc(C[C@H](N)C(=O)NO)cc1 measured_target="Maillard reaction (lysozyme / fructose, dimer formation)" numeric_value=15
compound=N[C@@H](Cc1ccc(OCc2ccccc2-c2ccccc2)cc1)C(=O)NO measured_target="Maillard reaction (lysozyme / fructose, dimer formation)" numeric_value=93
compound=CCCCCn1cc(C[C@H](N)C(=O)NO)c2ccccc21 measured_target="Maillard reaction (lysozyme / fructose, dimer formation)" numeric_value=104
compound=CCCn1c(CC[C@H](NCC2CCCCC2)C(=O)NO)nc2ccccc21 measured_target="Maillard reaction (lysozyme / fructose, dimer formation)" numeric_value=96
compound=N[C@@H](CCc1nc2ccccc2n1Cc1ccc(F)cc1)C(=O)NO measured_target="Maillard reaction (lysozyme / fructose, dimer formation)" numeric_value=94
compound=N#Cc1ccc(COc2ccc(C[C@H](N)C(=O)NO)cc2)cc1 measured_target="Maillard reaction (lysozyme / fructose, dimer formation)" numeric_value=89
compound=CN(C)NC(=O)c1ccc(C[C@H](N)C(=O)NO)cc1 measured_target="Maillard reaction (lysozyme / fructose, dimer formation)" numeric_value=1
compound="N#Cc1ccc(Cn2cc(CC(N)C(=O)NO)c3ccccc32)cc1 (racemic)" measured_target="Maillard reaction (lysozyme / fructose, dimer formation)" numeric_value=101
compound=N[C@@H](CCCNC(=O)CC1CCCCC1)C(=O)NO measured_target="Maillard reaction (lysozyme / fructose, dimer formation)" numeric_value=10
compound=CCCCC(=O)Nc1ccc(C[C@H](N)C(=O)NO)cc1 measured_target="Maillard reaction (lysozyme / fructose, dimer formation)" numeric_value=29
compound=N[C@@H](Cc1ccc(OCc2ccc(F)cc2F)cc1)C(=O)NO measured_target="Maillard reaction (lysozyme / fructose, dimer formation)" numeric_value=78
compound="NC(Cc1cn(Cc2ccc(F)c(F)c2)c2ccccc12)C(=O)NO (racemic)" measured_target="Maillard reaction (lysozyme / fructose, dimer formation)" numeric_value=102
compound=N[C@@H](CCCNC(=O)Cc1ccc([N+](=O)[O-])cc1)C(=O)NO measured_target="Maillard reaction (lysozyme / fructose, dimer formation)" numeric_value=−7
